Origin of the recorded values: patent US20090137572A1

Below, each of the compounds is paired with its reported IC50 value.
# SYSTEM NAME: Aurora A kinase (Homo sapiens, UniProt O14965)
# Construct: purchased
# Sequence (O14965 whole entry): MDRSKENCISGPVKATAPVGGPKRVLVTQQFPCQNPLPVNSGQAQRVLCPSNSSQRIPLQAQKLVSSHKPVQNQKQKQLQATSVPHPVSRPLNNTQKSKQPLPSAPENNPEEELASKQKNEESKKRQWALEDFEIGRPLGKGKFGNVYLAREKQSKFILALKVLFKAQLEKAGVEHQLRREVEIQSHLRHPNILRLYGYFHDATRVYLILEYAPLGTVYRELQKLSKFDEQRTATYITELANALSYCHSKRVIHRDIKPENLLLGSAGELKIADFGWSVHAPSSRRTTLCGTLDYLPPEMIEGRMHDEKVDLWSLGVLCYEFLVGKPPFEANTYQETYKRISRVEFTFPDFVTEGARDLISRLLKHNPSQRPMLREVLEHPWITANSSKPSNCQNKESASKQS
# ASSAY DETAILS: Aurora-A (human) kinase assay (Kemptide substrate)
# Assay type: biochemical
# SETTINGS: pIC50 is -log(IC50, M); 15 μM ATP; read-out: Kinase Inhibition pIC50 Aurora A kinase (converted)
# Procedure: Aurora-A (human) kinase assay. This was achieved by measurement of incorporation of radioactive phosphate from ATP into Kemptide substrate (LRRASLG), upon phosphorylation by commercially obtained aurora-A kinase. […] After washing 5 times with 75 mM aq orthophosphoric acid and once in methanol, plates were dried, scintillant added and incorporated radioactivity measured in a scintillation counter (TopCount, Packard Instruments, Pangbourne, Berks, UK). […]
ENDPOINT LABEL: IC50 (nM)

>>> numeric_result("Cc1nc(C)c(-c2ccnc(Nc3cccc(CN4CCOCC4)c3)n2)s1 [Compound 150]")
158
>>> numeric_result("CCNc1nc(C)c(-c2ccnc(Nc3ccc(C)c(S(=O)(=O)N4CCOCC4)c3)n2)s1 [Compound 36]")
12.6
>>> numeric_result("CCNc1nc(C)c(-c2ccnc(Nc3ccc(N4CC(C)OC(C)C4)cc3)n2)s1 (stereo not drawn) [Compound 169]")
50.1
>>> numeric_result("COc1cc(Nc2nccc(-c3sc(NCCc4ccccc4)nc3C)n2)cc(OC)c1 [Compound 159]")
794
>>> numeric_result("CCNc1nc(C)c(-c2ccnc(Nc3cccc(S(=O)(=O)NCC)c3)n2)s1 [Compound 29]")
50.1
>>> numeric_result("CCc1cc(-c2nc(C)c(-c3ccnc(Nc4ccc(S(=O)(=O)NCCO)cc4)n3)s2)ccn1 [Compound 102]")
63.1
>>> numeric_result("Cc1nc(-c2cccnc2)sc1-c1ccnc(Nc2ccc3c(c2)OCO3)n1 [Compound 177]")
2000
>>> numeric_result("CNc1nc(C)c(-c2ccnc(Nc3ccc(S(N)(=O)=O)cc3)n2)s1 [Compound 34]")
31.6
>>> numeric_result("CNc1nc(C)c(-c2ccnc(Nc3cccc(N4CCNCC4)c3)n2)s1 [Compound 7]")
200
>>> numeric_result("CC(=O)N1CCN(c2ccc(Nc3nccc(-c4sc(-c5ccc(N6CCOCC6)cc5)nc4C)n3)cc2)CC1 [Compound 148]")
316
>>> numeric_result("Cc1nc(-c2cccnc2)sc1-c1ccnc(Nc2ccc3c(c2)OCCO3)n1 [Compound 180]")
1580
>>> numeric_result("CC(=O)N1CCN(c2ccc(Nc3nccc(-c4sc(N)nc4C)n3)cc2)CC1 [Compound 57]")
63.1
>>> numeric_result("Cc1nc(-c2ccc(N3CCOCC3)cc2)sc1-c1ccnc(Nc2ccc(N3CCOCC3)cc2)n1 [Compound 147]")
501
>>> numeric_result("CCNc1nc(C)c(-c2ccnc(Nc3ccc(S(N)(=O)=O)cc3)n2)s1 [Compound 35]")
63.1
>>> numeric_result("COc1cc(Nc2nccc(-c3sc(NCCc4ccccc4)nc3C)n2)cc(OC)c1OC [Compound 165]")
63.1
>>> numeric_result("Cc1nc(C)c(-c2ccnc(Nc3ccc(O)c(CN4CCOCC4)c3)n2)s1 [Compound 151]")
63.1
>>> numeric_result("CC(=O)N1CCN(c2ccc(Nc3nccc(-c4sc(N(C)Cc5ccccc5)nc4C)n3)cc2)CC1 [Compound 122]")
200
>>> numeric_result("COCCNc1nc(C)c(-c2ccnc(Nc3ccc(N4CCOCC4)cc3)n2)s1 [Compound 144]")
100
>>> numeric_result("CC(=O)N1CCN(c2ccc(Nc3nccc(-c4sc(-c5cccs5)nc4C)n3)cc2)CC1 [Compound 131]")
251
>>> numeric_result("CCN(CC)S(=O)(=O)c1ccc(Nc2nccc(-c3sc(NC)nc3C)n2)cc1 [Compound 52]")
100
>>> numeric_result("CC(=O)N1CCN(c2ccc(Nc3nccc(-c4sc(Nc5ccccc5)nc4C)n3)cc2)CC1 [Compound 172]")
251
>>> numeric_result("CCNc1nc(C)c(-c2ccnc(Nc3ccc(S(=O)(=O)NCCOC)cc3)n2)s1 [Compound 39]")
126
>>> numeric_result("Cc1nc(N)sc1-c1ccnc(Nc2ccc(S(=O)(=O)NCCO)cc2)n1 [Compound 68]")
63.1
>>> numeric_result("CCNc1nc(C)c(-c2ccnc(Nc3ccc(N4CCOCC4)c(C(N)=O)c3)n2)s1 [Compound 212]")
63.1
>>> numeric_result("Cc1nc(N)sc1-c1ccnc(Nc2ccc(N3CCNCC3)cc2)n1 [Compound 61]")
20
>>> numeric_result("Cc1nc(C)c(-c2ccnc(Nc3ccc(N4CCCC4)cc3)n2)s1 [Compound 199]")
631
>>> numeric_result("Cc1nc(CO)sc1-c1ccnc(Nc2ccc(N3CCOCC3)cc2)n1 [Compound 188]")
79.4

---

# SYSTEM NAME: CDK2-cycline E (Homo sapiens, UniProt P24941)
# ASSAY DETAILS: Kinase assay (radioactive phosphate incorporation), CDK2-cyclin E
# Type: biochemical
# SETTINGS: read-out: Kinase Inhibition pIC50 CDK2-cycline E (converted)
# IC50 per record follows
ENDPOINT LABEL: IC50

>>> result("COCCNc1nc(C)c(-c2ccnc(Nc3cccc(S(N)(=O)=O)c3)n2)s1")
"25.1 nM"
>>> result("CCNc1nc(C)c(-c2ccnc(Nc3ccc(OC)c(C)c3)n2)s1")
"794 nM"
>>> result("CCNc1nc(C)c(-c2ccnc(Nc3ccc(N4CCCCC4)cc3)n2)s1")
"794 nM"
>>> result("Cc1nc(N)sc1-c1ccnc(Nc2ccc(S(=O)(=O)NCCO)cc2)n1")
"10 nM"

---

Listing of recorded IC50 by entry.
# SYSTEM NAME: Aurora A kinase (Homo sapiens, UniProt O14965)
# Construct: purchased
# ASSAY DETAILS: Aurora-A (human) kinase assay (Kemptide substrate)
# Assay type: biochemical
# SETTINGS: pIC50 is -log(IC50, M); 15 μM ATP; read-out: Kinase Inhibition pIC50 Aurora A kinase (converted)
ENDPOINT LABEL: IC50 (nM)

>>> numeric_result("COCCNS(=O)(=O)c1ccc(Nc2nccc(-c3sc(N)nc3C)n2)cc1")
50.1
>>> numeric_result("CCNc1nc(C)c(-c2ccnc(Nc3ccc(N4CCN(Cc5ccccc5)CC4)cc3)n2)s1")
50.1
>>> numeric_result("CNc1nc(C)c(-c2ccnc(Nc3cccc(N4CCN(C(C)=O)CC4)c3)n2)s1")
20

---

The entries below come with measured IC50 values attached.
# SYSTEM NAME: CDK2-cyclin A (Homo sapiens, UniProt P24941)
# ASSAY DETAILS: Kinase assay (radioactive phosphate incorporation), CDK2-cyclin A
# Format: biochemical
# SETTINGS: read-out: Kinase Inhibition pIC50 CDK2-cyclin A (converted)
ENDPOINT LABEL: IC50 (nM)

>>> numeric_result("Cc1nc(N)sc1-c1ccnc(Nc2ccc(S(=O)(=O)NCCO)cc2)n1")
20
>>> numeric_result("CCNc1nc(C)c(-c2ccnc(Nc3ccc(S(=O)(=O)NCCO)cc3)n2)s1")
20
>>> numeric_result("CCNc1nc(C)c(-c2ccnc(Nc3cccc(CNS(=O)(=O)C(F)(F)F)c3)n2)s1")
6310
>>> numeric_result("CCNc1nc(C)c(-c2ccnc(Nc3cccc(S(C)(=O)=O)c3)n2)s1")
794
>>> numeric_result("CNc1nc(C)c(-c2ccnc(Nc3ccc(S(=O)(=O)NCc4ccccc4)cc3)n2)s1")
1260
>>> numeric_result("Cc1nc(N)sc1-c1ccnc(Nc2cccc(CNS(=O)(=O)C(F)(F)F)c2)n1")
501
>>> numeric_result("CCNc1nc(C)c(-c2ccnc(Nc3ccc(CNC(C)=O)cc3)n2)s1")
126
>>> numeric_result("CNc1nc(C)c(-c2ccnc(Nc3cccc(CC(=O)OCCOC)c3)n2)s1")
2000
>>> numeric_result("CNc1nc(C)c(-c2ccnc(Nc3cc(CO)cc(CO)c3)n2)s1")
631
>>> numeric_result("CCNc1nc(C)c(-c2ccnc(Nc3cccc(CC(=O)OCCOC)c3)n2)s1")
3160
>>> numeric_result("CNc1nc(C)c(-c2ccnc(Nc3cccc(N4CCNCC4)c3)n2)s1")
2510
>>> numeric_result("CCNc1nc(C)c(-c2ccnc(Nc3ccc(N4CCN(Cc5ccccc5)CC4)cc3)n2)s1")
3160
>>> numeric_result("CCNc1nc(C)c(-c2ccnc(Nc3ccc(N4CCN(C(C)=O)CC4)cc3)n2)s1")
1000
>>> numeric_result("CC(=O)NCc1ccc(Nc2nccc(-c3sc(C)nc3C)n2)cc1")
1000
>>> numeric_result("Cc1nc(C)c(-c2ccnc(Nc3cccc(CNS(C)(=O)=O)c3)n2)s1")
158
>>> numeric_result("COCCNS(=O)(=O)c1ccc(Nc2nccc(-c3sc(N)nc3C)n2)cc1")
15.8
>>> numeric_result("CCNS(=O)(=O)c1cccc(Nc2nccc(-c3sc(N)nc3C)n2)c1")
1000
>>> numeric_result("CCNc1nc(C)c(-c2ccnc(Nc3ccc(S(N)(=O)=O)cc3)n2)s1")
6.31
>>> numeric_result("CNc1nc(C)c(-c2ccnc(Nc3cccc(S(=O)(=O)NCCO)c3)n2)s1")
1580
>>> numeric_result("CNc1nc(C)c(-c2ccnc(Nc3ccc(S(=O)(=O)NCCO)cc3)n2)s1")
15.8
>>> numeric_result("Cc1nc(C)c(-c2ccnc(Nc3cccc(S(=O)(=O)NCCO)c3)n2)s1")
2000
>>> numeric_result("CCNc1nc(C)c(-c2ccnc(Nc3ccc(S(=O)(=O)NCc4ccccc4)cc3)n2)s1")
3160
>>> numeric_result("CCNc1nc(C)c(-c2ccnc(Nc3cccc(S(=O)(=O)NC)c3)n2)s1")
794
>>> numeric_result("CCNc1nc(C)c(-c2ccnc(Nc3cccc(S(N)(=O)=O)c3)n2)s1")
1580
